target: Death-associated protein kinase 3 (Homo sapiens, UniProt O43293); experiment: Inhibition of human recombinant DAPK3 at 10 uM
Sequence (O43293 whole entry, looked up): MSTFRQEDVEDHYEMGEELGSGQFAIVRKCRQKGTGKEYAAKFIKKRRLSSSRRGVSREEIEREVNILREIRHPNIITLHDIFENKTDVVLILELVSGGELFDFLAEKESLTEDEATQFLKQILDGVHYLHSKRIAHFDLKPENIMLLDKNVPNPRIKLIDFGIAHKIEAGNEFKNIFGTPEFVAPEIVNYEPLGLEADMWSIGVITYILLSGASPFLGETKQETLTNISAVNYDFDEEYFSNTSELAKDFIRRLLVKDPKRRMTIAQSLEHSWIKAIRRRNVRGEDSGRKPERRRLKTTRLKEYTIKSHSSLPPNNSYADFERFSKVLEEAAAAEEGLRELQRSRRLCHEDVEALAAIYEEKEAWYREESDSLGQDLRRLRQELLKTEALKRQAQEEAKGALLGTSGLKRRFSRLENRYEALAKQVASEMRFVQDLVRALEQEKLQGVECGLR
testReadout: inhibition
State the value with its unit after it.

Solved cases (10 shown):
COc1ccc(C2=N/C(=C\c3cccnc3)C(=O)O2)c(Br)c1 | 92%
O=C1OC(c2cccc(Cl)c2)=N/C1=C\c1cccnc1 | 97%
O=C1OC(c2ccc([N+](=O)[O-])cc2)=N/C1=C\c1ccncc1 | 2%
O=C1OC(c2cc(I)ccc2Cl)=N/C1=C\c1ccncc1 | 97%
O=C1OC(c2cccc(Br)c2)=N/C1=C\c1cccnc1 | 100%
O=C1OC(c2ccc(F)c(F)c2)=N/C1=C\c1cccnc1 | 98%
O=C1N=C(N2CCCCC2)S/C1=C\c1cccnc1 | 29%
Cc1ccc(C2=N/C(=C\c3cccnc3)C(=O)O2)cc1[N+](=O)[O-] | 90%
O=C1OC(c2ccccc2)=N/C1=C\c1ccncc1 | 1%
COc1ccc(C2=N/C(=C\c3cccnc3)C(=O)O2)cc1OC | 36%

// for each molecule below, give its inhibition
1. Cc1cc(C2=N/C(=C\c3cccnc3)C(=O)O2)ccc1Br
2. O=C1OC(c2ccc(Cl)c([N+](=O)[O-])c2)=N/C1=C\c1cccnc1
3. O=C1OC(c2cccc([N+](=O)[O-])c2)=N/C1=C\c1ccncc1

94%
100%
0%

// for each molecule below, give its inhibition
1. O=C1OC(c2ccc([N+](=O)[O-])cc2)=N/C1=C\c1cccnc1
2. O=C1OC(c2ccc(Cl)cc2)=N/C1=C\c1cccnc1

94%
96%

---

Kindly supply the reported inhibition values for the records listed here.
target: Tyrosine-protein kinase Lyn (Homo sapiens) (UniProt P07948); test: Inhibition of LYN at 10 uM
Sequence (P07948 2-512 limits assumed): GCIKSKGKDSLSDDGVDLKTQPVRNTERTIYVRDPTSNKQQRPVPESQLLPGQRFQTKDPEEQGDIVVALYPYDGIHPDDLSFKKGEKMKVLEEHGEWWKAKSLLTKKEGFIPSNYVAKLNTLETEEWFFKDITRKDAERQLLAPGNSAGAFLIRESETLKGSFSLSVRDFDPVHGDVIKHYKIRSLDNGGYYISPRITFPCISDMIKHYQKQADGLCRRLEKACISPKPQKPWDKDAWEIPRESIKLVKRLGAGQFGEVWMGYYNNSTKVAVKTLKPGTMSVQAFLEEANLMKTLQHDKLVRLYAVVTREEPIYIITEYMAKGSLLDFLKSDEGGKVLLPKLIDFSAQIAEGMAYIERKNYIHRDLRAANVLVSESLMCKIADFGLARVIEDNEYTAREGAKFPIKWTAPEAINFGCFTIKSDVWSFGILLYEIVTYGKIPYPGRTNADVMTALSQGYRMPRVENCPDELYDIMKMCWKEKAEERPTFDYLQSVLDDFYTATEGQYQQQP
State the value with its unit after it.

Solved cases (3 shown):
Cc1cc(C2=N/C(=C\c3cccnc3)C(=O)O2)ccc1Br | 0%
O=C1OC(c2ccccc2)=N/C1=C\c1cccnc1 | 10%
O=C1OC(c2ccc(F)c(F)c2)=N/C1=C\c1cccnc1 | 2%

Could you now look at the following molecule, please?
Give the reported inhibition for this molecule. O=C1OC(/C=C/c2ccccc2)=NC/1=C\c1cccnc1 1%

---

biological target: UniProtKB P06213; assay: Inhibition of INSR at 10 uM
Sequence (P06213 28-758 limits assumed): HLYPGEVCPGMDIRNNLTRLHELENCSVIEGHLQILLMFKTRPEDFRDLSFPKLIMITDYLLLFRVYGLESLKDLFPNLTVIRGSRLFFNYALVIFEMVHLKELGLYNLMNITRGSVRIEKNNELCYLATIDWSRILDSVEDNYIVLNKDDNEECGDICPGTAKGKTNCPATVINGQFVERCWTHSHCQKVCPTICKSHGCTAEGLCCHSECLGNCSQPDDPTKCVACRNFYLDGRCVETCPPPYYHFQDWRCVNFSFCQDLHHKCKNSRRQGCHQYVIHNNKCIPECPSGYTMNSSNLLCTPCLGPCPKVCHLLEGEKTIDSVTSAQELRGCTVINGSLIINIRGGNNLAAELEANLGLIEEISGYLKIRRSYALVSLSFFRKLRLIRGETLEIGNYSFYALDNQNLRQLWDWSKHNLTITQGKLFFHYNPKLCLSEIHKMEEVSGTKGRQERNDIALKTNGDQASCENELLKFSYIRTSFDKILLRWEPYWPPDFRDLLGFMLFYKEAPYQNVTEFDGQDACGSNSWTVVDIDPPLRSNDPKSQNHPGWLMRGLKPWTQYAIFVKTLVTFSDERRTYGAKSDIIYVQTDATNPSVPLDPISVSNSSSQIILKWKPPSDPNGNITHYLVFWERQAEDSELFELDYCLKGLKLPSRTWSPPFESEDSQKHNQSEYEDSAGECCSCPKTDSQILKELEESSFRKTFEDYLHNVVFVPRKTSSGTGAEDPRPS
Sequence (P06213 763-1382 limits assumed): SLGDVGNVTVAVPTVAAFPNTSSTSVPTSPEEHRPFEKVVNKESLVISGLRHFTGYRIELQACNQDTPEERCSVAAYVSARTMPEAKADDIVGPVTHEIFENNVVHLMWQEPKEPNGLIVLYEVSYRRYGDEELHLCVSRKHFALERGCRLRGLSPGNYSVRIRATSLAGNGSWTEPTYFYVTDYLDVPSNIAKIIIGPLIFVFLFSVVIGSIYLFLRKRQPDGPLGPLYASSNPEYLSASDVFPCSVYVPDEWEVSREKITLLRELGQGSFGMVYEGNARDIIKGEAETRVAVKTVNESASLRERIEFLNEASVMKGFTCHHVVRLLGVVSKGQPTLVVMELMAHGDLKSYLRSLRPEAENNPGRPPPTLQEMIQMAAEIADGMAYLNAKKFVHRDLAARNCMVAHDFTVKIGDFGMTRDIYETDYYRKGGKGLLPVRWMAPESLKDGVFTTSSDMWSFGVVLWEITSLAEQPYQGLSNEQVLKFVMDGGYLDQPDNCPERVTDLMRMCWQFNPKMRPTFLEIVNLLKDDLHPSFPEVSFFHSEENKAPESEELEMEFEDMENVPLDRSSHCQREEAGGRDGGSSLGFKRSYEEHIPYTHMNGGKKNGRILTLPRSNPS
testReadout: inhibition (%)
Numbers only, in %.

O=C1OC(c2ccc(F)c(F)c2)=N/C1=C\c1cccnc1 | 7
O=C1OC(c2ccccc2)=N/C1=C\c1cccnc1 | 7
O=C1OC(/C=C/c2ccccc2)=NC/1=C\c1cccnc1 | 4
Cc1cc(C2=N/C(=C\c3cccnc3)C(=O)O2)ccc1Br | 0

Give the reported inhibition for this compound. Cc1cccc(C2=N/C(=C\c3cccnc3)C(=O)O2)c1 3

---

Kindly supply the reported inhibition values for the records listed here.
biological target: Serine/threonine-protein kinase Chk1 (Homo sapiens); assay: Inhibition of CHK1 at 10 uM

O=C1OC(c2ccccc2)=N/C1=C\c1cccnc1 | 3%
O=C1OC(c2ccc(Cl)cc2)=N/C1=C\c1cccnc1 | 12%

// for each compound below, give its inhibition
1. Cc1cc(C2=N/C(=C\c3cccnc3)C(=O)O2)ccc1Br
2. O=C1OC(c2ccc(F)c(F)c2)=N/C1=C\c1cccnc1
3. Cc1cccc(C2=N/C(=C\c3cccnc3)C(=O)O2)c1
4. O=C1OC(/C=C/c2ccccc2)=NC/1=C\c1cccnc1

["5%", "7%", "5%", "12%"]

---

Kindly supply the reported inhibition values for the records listed here.
target: Proto-oncogene tyrosine-protein kinase Src (Homo sapiens); experiment: Inhibition of SRC at 10 uM
State the value with its unit after it.

Solved cases (3 shown):
O=C1OC(c2ccc(Cl)cc2)=N/C1=C\c1cccnc1 | 3%
O=C1OC(c2ccc(F)c(F)c2)=N/C1=C\c1cccnc1 | 6%
O=C1OC(/C=C/c2ccccc2)=NC/1=C\c1cccnc1 | 5%

// for each compound below, give its inhibition
1. Cc1cc(C2=N/C(=C\c3cccnc3)C(=O)O2)ccc1Br
2. O=C1OC(c2ccccc2)=N/C1=C\c1cccnc1
3. Cc1cccc(C2=N/C(=C\c3cccnc3)C(=O)O2)c1

["2%", "13%", "5%"]

---

Kindly supply the reported inhibition values for the records listed here.
target: Aurora kinase A (Homo sapiens); assay: Inhibition of Aurora A at 10 uM
Numbers only, in %.

// for each molecule below, give its inhibition
1. O=C1OC(c2ccccc2)=N/C1=C\c1cccnc1
2. Cc1cc(C2=N/C(=C\c3cccnc3)C(=O)O2)ccc1Br
3. O=C1OC(/C=C/c2ccccc2)=NC/1=C\c1cccnc1
4. O=C1OC(c2ccc(F)c(F)c2)=N/C1=C\c1cccnc1
5. O=C1OC(c2ccc(Cl)cc2)=N/C1=C\c1cccnc1
6. Cc1cccc(C2=N/C(=C\c3cccnc3)C(=O)O2)c1

[6, 16, 14, 8, 15, 3]

---

target: Tyrosine-protein kinase ABL1 (Homo sapiens) (UniProt P00519); assay: Inhibition of ABL at 10 uM
Sequence (P00519 whole entry): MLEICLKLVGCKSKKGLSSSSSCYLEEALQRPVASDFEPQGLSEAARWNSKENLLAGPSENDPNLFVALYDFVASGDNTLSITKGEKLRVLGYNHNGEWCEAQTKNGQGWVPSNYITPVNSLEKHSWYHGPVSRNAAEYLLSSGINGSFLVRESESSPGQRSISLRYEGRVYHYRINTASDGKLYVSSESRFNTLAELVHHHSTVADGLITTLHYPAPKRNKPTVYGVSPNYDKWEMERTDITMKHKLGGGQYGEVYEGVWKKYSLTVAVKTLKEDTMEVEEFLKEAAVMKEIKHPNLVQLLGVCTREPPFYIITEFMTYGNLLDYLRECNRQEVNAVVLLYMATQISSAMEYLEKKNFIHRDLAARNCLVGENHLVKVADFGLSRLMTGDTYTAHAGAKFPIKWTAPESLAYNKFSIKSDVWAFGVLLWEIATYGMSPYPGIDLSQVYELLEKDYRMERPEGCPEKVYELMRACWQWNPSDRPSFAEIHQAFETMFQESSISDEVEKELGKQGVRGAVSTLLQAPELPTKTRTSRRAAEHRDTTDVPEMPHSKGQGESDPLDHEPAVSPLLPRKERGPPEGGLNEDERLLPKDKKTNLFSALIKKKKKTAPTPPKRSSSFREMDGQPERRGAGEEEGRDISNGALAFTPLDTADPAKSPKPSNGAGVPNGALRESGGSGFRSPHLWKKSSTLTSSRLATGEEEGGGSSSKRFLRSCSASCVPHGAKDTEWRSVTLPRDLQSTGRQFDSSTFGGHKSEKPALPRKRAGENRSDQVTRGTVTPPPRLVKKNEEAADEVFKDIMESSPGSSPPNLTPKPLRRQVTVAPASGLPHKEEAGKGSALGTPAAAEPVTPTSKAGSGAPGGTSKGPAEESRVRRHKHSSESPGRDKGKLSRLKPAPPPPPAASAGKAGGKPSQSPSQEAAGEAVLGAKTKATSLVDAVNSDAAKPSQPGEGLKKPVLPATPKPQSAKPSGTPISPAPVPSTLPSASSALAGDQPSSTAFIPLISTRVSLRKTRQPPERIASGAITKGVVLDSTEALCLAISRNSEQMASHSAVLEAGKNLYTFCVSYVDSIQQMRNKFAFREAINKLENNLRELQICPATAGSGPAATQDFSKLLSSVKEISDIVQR
Kindly supply the reported inhibition values for the records listed here.
Answers are plain numbers, in %.

Solved cases (3 shown):
Cc1cc(C2=N/C(=C\c3cccnc3)C(=O)O2)ccc1Br | 7
O=C1OC(/C=C/c2ccccc2)=NC/1=C\c1cccnc1 | 9
O=C1OC(c2ccccc2)=N/C1=C\c1cccnc1 | 16

Give the reported inhibition for this compound. Cc1cccc(C2=N/C(=C\c3cccnc3)C(=O)O2)c1 1

---

Kindly supply the reported inhibition values for the records listed here.
molecular target: RAC-beta serine/threonine-protein kinase (Homo sapiens); test: Inhibition of AKT2 at 10 uM
One number for each entry, in %.

O=C1OC(/C=C/c2ccccc2)=NC/1=C\c1cccnc1 | 17
O=C1OC(c2ccccc2)=N/C1=C\c1cccnc1 | 13
O=C1OC(c2ccc(Cl)cc2)=N/C1=C\c1cccnc1 | 17
O=C1OC(c2ccc(F)c(F)c2)=N/C1=C\c1cccnc1 | 18
Cc1cccc(C2=N/C(=C\c3cccnc3)C(=O)O2)c1 | 6

Could you now look at the following compound, please?
Give the reported inhibition for this compound. Cc1cc(C2=N/C(=C\c3cccnc3)C(=O)O2)ccc1Br 28

---

molecular target: Serine/threonine-protein kinase D2 (Homo sapiens); assay: Inhibition of PKD2 at 10 uM
Quick rule for you: inhibition at 3% or higher means true, lower means false.

Cc1cccc(C2=N/C(=C\c3cccnc3)C(=O)O2)c1 | false
O=C1OC(c2ccccc2)=N/C1=C\c1cccnc1 | true
O=C1OC(c2ccc(Cl)cc2)=N/C1=C\c1cccnc1 | true

Next compound, please.
Quick check, inhibition >= 3%? Cc1cc(C2=N/C(=C\c3cccnc3)C(=O)O2)ccc1Br true

---

target: Death-associated protein kinase 3 (Homo sapiens, UniProt O43293); test: Inhibition of human recombinant DAPK3 at 1 uM
Range-based classes on measured inhibition: low range (below 30%), mid range (30% to below 90%), high range (90% or more)

Cc1cccc(C2=N/C(=C\c3cccnc3)C(=O)O2)c1 | mid range

Record COc1ccc(C2=N/C(=C\c3cccnc3)C(=O)O2)cc1OC — which class? low range

Record O=C1OC(c2ccc(Cl)c([N+](=O)[O-])c2)=N/C1=C\c1cccnc1 — which class? high range

Record COc1cc(C2=N/C(=C\c3cccnc3)C(=O)O2)cc(OC)c1OC — which class? low range

Record O=C1OC(c2ccc([N+](=O)[O-])cc2)=N/C1=C\c1ccncc1 — which class? low range

Record O=C1OC(c2ccccc2)=N/C1=C\c1ccncc1 — which class? low range

Record O=C1OC(c2cccc(Br)c2)=N/C1=C\c1ccncc1 — which class? low range

Record O=C1OC(c2ccc(Cl)c([N+](=O)[O-])c2)=N/C1=C\c1ccncc1 — which class? low range

Record O=C1OC(c2cccc([N+](=O)[O-])c2)=N/C1=C\c1ccncc1 — which class? low range

---

Kindly supply the reported inhibition values for the records listed here.
biological target: Mitogen-activated protein kinase 3 (Homo sapiens); experiment: Inhibition of ERK1 at 10 uM
One number for each entry, in %.

Solved cases (5 shown):
Cc1cccc(C2=N/C(=C\c3cccnc3)C(=O)O2)c1 | 0
O=C1OC(c2ccc(F)c(F)c2)=N/C1=C\c1cccnc1 | 25
Cc1cc(C2=N/C(=C\c3cccnc3)C(=O)O2)ccc1Br | 18
O=C1OC(c2ccccc2)=N/C1=C\c1cccnc1 | 16
O=C1OC(/C=C/c2ccccc2)=NC/1=C\c1cccnc1 | 7

Could you now look at the following molecule, please?
Give the reported inhibition for this molecule. O=C1OC(c2ccc(Cl)cc2)=N/C1=C\c1cccnc1 25

---

target: Mitogen-activated protein kinase 1 (Homo sapiens); assay: Inhibition of ERK2 at 10 uM
testReadout: inhibition
State the value with its unit after it.

Solved cases (3 shown):
O=C1OC(c2ccc(Cl)cc2)=N/C1=C\c1cccnc1 | 10%
O=C1OC(c2ccc(F)c(F)c2)=N/C1=C\c1cccnc1 | 34%
O=C1OC(c2ccccc2)=N/C1=C\c1cccnc1 | 7%

Could you now look at the following molecule, please?
Give the reported inhibition for this molecule. O=C1OC(/C=C/c2ccccc2)=NC/1=C\c1cccnc1 20%
